Target: mouse GnRH receptor (Mus musculus)
Construct: expressed in transfected cells; host or cells: 293 cells
Sequence (Q01776 1-327): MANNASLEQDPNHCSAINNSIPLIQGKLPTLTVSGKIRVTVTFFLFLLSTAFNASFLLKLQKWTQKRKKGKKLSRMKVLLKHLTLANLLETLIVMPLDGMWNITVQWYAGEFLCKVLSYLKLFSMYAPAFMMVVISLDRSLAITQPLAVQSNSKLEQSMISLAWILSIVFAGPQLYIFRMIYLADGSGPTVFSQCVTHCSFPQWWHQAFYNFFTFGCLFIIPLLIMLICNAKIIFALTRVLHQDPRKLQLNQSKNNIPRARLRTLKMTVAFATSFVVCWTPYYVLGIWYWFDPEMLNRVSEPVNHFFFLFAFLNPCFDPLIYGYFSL
Experiment: Radioligand binding, 125I-GnRH-A, 293 cells expressing mouse GnRH receptors
Conditions: 10 uM; read-out: % Inhib. @ 10 uM mGnRH
METRIC_NAME: inhibition at 10 µM (%)
Express it in %; write the number only.

[in] If you can, please state the reported inhibition at 10 µM value of Cc1cc2c(cc1Cc1ccc(C(=O)N3CCC(n4c(=O)[nH]c5ccccc54)CC3)o1)C(C)(C)CCC2(C)C [drawing 1246] .
[out] 80

[in] Would you mind telling me what inhibition at 10 µM value was observed for Cc1cc2c(cc1Cc1ccc(C(=O)NC(C(C)C)C(C)C)o1)C(C)(C)CCC2(C)C ?
[out] 58

[in] Given the compound Cc1cc2c(cc1Cc1ccc(C(=O)N3CCN(Cc4ccc5c(c4)OCO5)CC3)o1)C(C)(C)CCC2(C)C , what is its reported inhibition at 10 µM?
[out] 66

[in] Name the recorded inhibition at 10 µM for Cc1cc2c(cc1Cc1ccc(C(=O)N3CCCC3CNc3ccccc3)o1)C(C)(C)CCC2(C)C (stereo not shown) .
[out] 53

[in] Requested read-out: inhibition at 10 µM. Entry: Cc1cc2c(cc1Cc1ccc(C(=O)N3Cc4ccccc4CC3C(=O)NCC(c3ccccc3)c3ccccc3)o1)C(C)(C)CCC2(C)C (stereo not shown)
[out] 9

[in] For the compound Cc1cc2c(cc1Cc1ccc(C(=O)N3CCC(NC(=O)OC(C)(C)C)C3)o1)C(C)(C)CCC2(C)C (stereo not shown) [drawing 1544] , what inhibition at 10 µM is on record?
[out] 82

[in] # get_value(readout='inhibition at 10 µM', item= Cc1cc2c(cc1Cc1ccc(C(=O)N(CCC(c3ccccc3)c3ccccc3)C(C)c3ccccc3)o1)C(C)(C)CCC2(C)C (stereo not shown) )
[out] 30

[in] # inhibition at 10 µM lookup, item Cc1cc2c(cc1Cc1ccc(C(=O)N3CCCCCCC3)o1)C(C)(C)CCC2(C)C [drawing 1433]
[out] 88

[in] Name the recorded inhibition at 10 µM for Cc1cc2c(cc1Cc1ccc(C(=O)NCCN3CCN(c4nccc(NCC5CCCO5)n4)CC3)o1)C(C)(C)CCC2(C)C (stereo not shown) .
[out] 96

[in] Value lookup for inhibition at 10 µM; key = Cc1cc2c(cc1Cc1ccc(C(=O)N(Cc3cccc(Cl)c3)Cc3cccc(Cl)c3)o1)C(C)(C)CCC2(C)C
[out] 17

[in] Which inhibition at 10 µM value is on record for Cc1cc2c(cc1Cc1ccc(C(=O)N(CCC#N)Cc3ccccc3)o1)C(C)(C)CCC2(C)C ?
[out] 74

[in] For the compound CC[C@H](C)C(CO)NC(=O)c1ccc(Cc2cc3c(cc2C)C(C)(C)CCC3(C)C)o1 (stereo partly shown) [drawing 1581] , what inhibition at 10 µM is on record?
[out] 77

[in] What does the data say about its inhibition at 10 µM? Entry: Cc1ccc(CN(CCc2ccc(Cl)cc2Cl)C(=O)c2ccc(Cc3cc4c(cc3C)C(C)(C)CCC4(C)C)o2)cc1
[out] 23

[in] Query: inhibition at 10 µM; subject: Cc1cc2c(cc1Cc1ccc(C(=O)N3CCC[C@H]3CO)o1)C(C)(C)CCC2(C)C
[out] 93

[in] Entry Cc1cc2c(cc1Cc1ccc(C(=O)NCCN(C(C)C)C(C)C)o1)C(C)(C)CCC2(C)C : reported inhibition at 10 µM = ?
[out] 102

[in] What does the data say about its inhibition at 10 µM? Entry: Cc1cc2c(cc1Cc1ccc(C(=O)NC(CO)CC(C)C)o1)C(C)(C)CCC2(C)C (stereo not shown) [drawing 1320]
[out] 98
